# measurement description: Mycobacterium tuberculosis growth inhibition, primary screen (AID 1259343)
# condition description: at 10 µM, hits give high values
Hit rate of the full screen: of about 6,200 compounds, about 2,900 (47%) were called active. The set was probably picked from earlier hits. The list shows a part of the results.
Quick reference for inhibition among some molecules
Respond with the bare value in %.

Guide cases for inhibition, answers given:
[[record]]
smiles_record = "N#Cc1ccc(NC(=O)NCc2cccs2)cc1Cl"
result = 48.4

[[record]]
smiles_record = "O=S(=O)(Nc1ccc(Cl)c(Cl)c1)c1cccs1"
result = 20.9

[[record]]
smiles_record = "COc1cccc(C(=O)Nc2cc(C)nn2-c2nc(C)cc(=O)[nH]2)c1OC"
result = 101

[[record]]
smiles_record = "Cc1ccc(Cn2c(C)c(C(=O)Nc3ccc(C)cc3)sc2=O)cc1"
result = -16.4

[[record]]
smiles_record = "Cc1ccc(-c2cc(C(=O)N(CCN(C)C)Cc3ccccc3)n(-c3ccccc3)n2)cc1C"
result = 27.2


Prompt: Any idea what inhibition was measured for COc1ccccc1C(=O)Nc1cc(C)nn1-c1nc(C)cc(=O)[nH]1 ?
Response: 99.4

Prompt: What about this molecule? COc1cccc(C(=O)Nc2cc(-c3cccs3)nn2-c2nc(C)cc(=O)[nH]2)c1OC
Response: 100

Prompt: Also COc1ccc(NC(=O)c2sc(=O)n(Cc3ccc(C)cc3)c2C)cc1OC ?
Response: 41.4
